Could you please report measured total FIC50 for the items listed next?
Tested on: Mycobacterium tuberculosis Erdman (autoluminescent)
Assay: total FIC50 (Loewe) at 50% inhibition, three-drug combination (log2); higher = more antagonistic
Conditions: in vitro model: standard 7H9 glycerol; time point: constant = terminal
Numbers only.

The following molecules have reported results that may help.
INSERT INTO results (molecule, assay_result) VALUES
  ('CC(C)/N=c1\cc2n(-c3ccc(Cl)cc3)c3ccccc3nc-2cc1Nc1ccc(Cl)cc1 [clofazimine] + NNC(=O)c1ccncc1 [isoniazid] + CO[C@H]1/C=C/O[C@@]2(C)Oc3c(C)c(O)c4c(O)c(c(/C=N/N5CCN(C6CCCC6)CC5)c(O)c4c3C2=O)NC(=O)/C(C)=C\C=C\[C@H](C)[C@H](O)[C@@H](C)[C@@H](O)[C@@H](C)[C@H](OC(C)=O)[C@@H]1C [rifapentine]', 0.0163),
  ('COc1nc2ccc(Br)cc2cc1[C@@H](c1ccccc1)[C@@](O)(CCN(C)C)c1cccc2ccccc12 [bedaquiline] + CC(=O)NC[C@H]1CN(c2ccc(N3CCOCC3)c(F)c2)C(=O)O1 [linezolid] + COc1c(N2C[C@@H]3CCCN[C@@H]3C2)c(F)cc2c(=O)c(C(=O)O)cn(C3CC3)c12 [moxifloxacin]', 0.152);

Ask: Which total FIC50 value is on record for CC[C@@H](CO)NCCN[C@@H](CC)CO [ethambutol] + NC(=O)c1cnccn1 [pyrazinamide] + CO[C@H]1/C=C/O[C@@]2(C)Oc3c(C)c(O)c4c(O)c(c(/C=N/N5CCN(C6CCCC6)CC5)c(O)c4c3C2=O)NC(=O)/C(C)=C\C=C\[C@H](C)[C@H](O)[C@@H](C)[C@@H](O)[C@@H](C)[C@H](OC(C)=O)[C@@H]1C [rifapentine] ?
Result: 0.158

###

Could you please report measured total FIC50 for the items listed next?
Tested on: Mycobacterium tuberculosis Erdman (autoluminescent)
Test: total FIC50 (Loewe) at 50% inhibition, three-drug combination (log2); higher = more antagonistic
Conditions: in vitro model: butyrate; time point: constant (~7 days, model-specific)
Give bare numbers.

The following compounds have reported results that may help.
INSERT INTO measurements (compound, experimental_readout, assay_result) VALUES
  ('CC[C@@H](CO)NCCN[C@@H](CC)CO [ethambutol] + O=[N+]([O-])c1cn2c(n1)OC[C@@H](OCc1ccc(OC(F)(F)F)cc1)C2 [pretomanid] + CO[C@H]1/C=C/O[C@@]2(C)Oc3c(C)c(O)c4c(O)c(c(/C=N/N5CCN(C)CC5)c(O)c4c3C2=O)NC(=O)/C(C)=C\C=C\[C@H](C)[C@H](O)[C@@H](C)[C@@H](O)[C@@H](C)[C@H](OC(C)=O)[C@@H]1C [rifampicin]', 'total FIC50', 0.153),
  ('CC[C@@H](CO)NCCN[C@@H](CC)CO [ethambutol] + CO[C@H]1/C=C/O[C@@]2(C)Oc3c(C)c(O)c4c(O)c(c(/C=N/N5CCN(C6CCCC6)CC5)c(O)c4c3C2=O)NC(=O)/C(C)=C\C=C\[C@H](C)[C@H](O)[C@@H](C)[C@@H](O)[C@@H](C)[C@H](OC(C)=O)[C@@H]1C [rifapentine] + CO[C@H]1/C=C/O[C@@]2(C)Oc3c(C)c(O)c4c(O)c(c(/C=N/N5CCN(C)CC5)c(O)c4c3C2=O)NC(=O)/C(C)=C\C=C\[C@H](C)[C@H](O)[C@@H](C)[C@@H](O)[C@@H](C)[C@H](OC(C)=O)[C@@H]1C [rifampicin]', 'total FIC50', 0.0694);

Pending compound:
Ask: Which total FIC50 value is on record for CC[C@@H](CO)NCCN[C@@H](CC)CO [ethambutol] + COc1c(N2C[C@@H]3CCCN[C@@H]3C2)c(F)cc2c(=O)c(C(=O)O)cn(C3CC3)c12 [moxifloxacin] + CO[C@H]1/C=C/O[C@@]2(C)Oc3c(C)c(O)c4c(O)c(c(/C=N/N5CCN(C)CC5)c(O)c4c3C2=O)NC(=O)/C(C)=C\C=C\[C@H](C)[C@H](O)[C@@H](C)[C@@H](O)[C@@H](C)[C@H](OC(C)=O)[C@@H]1C [rifampicin] ?
Result: 0.419

Value source: the supplement of paper PMC8617591
